All values here come from the METLIN SMRT retention time set (Domingo-Almenara et al. 2019).

# assayText: gradient 5% acetonitrile 3 min, to 50% in 2 min, to 85% in 15 min, held 3 min, 100 µL/min
# cond: column: Zorbax Extend-C18 2.1 x 50 mm; eluents: water / acetonitrile, 0.1% formic acid
measurementLabel: RP-LC retention time (s)

Use the examples below as a reference point.
- compound: "Cn1c(=O)c(-c2noc(C(=O)N3CCN(c4ccccn4)CC3)n2)nn(-c2ccccc2)c1=O"
  RP-LC retention time (s): 637
- compound: "Cc1ccc(C)c(CNC(=O)C2CCc3nc(N4CCOCC4)ncc3C2)c1 (centres undefined)"
  RP-LC retention time (s): 888
- compound: "CC(C)C(=O)Nc1ccc2c(c1)N(C(=O)c1cccs1)CCC2"
  RP-LC retention time (s): 819
- compound: "CN(CCc1noc(COc2ccc(Cl)cc2)n1)C(=O)NC(C)(C)C"
  RP-LC retention time (s): 953
- compound: "CCCCNC(=O)CN1C(=O)C2CCCCN2c2ccc(C(=O)N3CCCC3)cc21 (centres undefined)"
  RP-LC retention time (s): 743

A. O=C(Nc1cccc(F)c1)N1CCCC1c1nc(-c2cccc(F)c2)no1 (centres undefined)
B. Cn1c(CN2CCN(C(=O)c3ccco3)CC2)nc2cc(NC(=O)c3ccco3)ccc21
Prompt line: Compare A and B and name the one whose reported RP-LC retention time is smaller. The response must carry the label of the picked entry.
Response line: B
(B: 607 s, A: 994 s)

====

# assayText: gradient 5% acetonitrile 3 min, to 50% in 2 min, to 85% in 15 min, held 3 min, 100 µL/min
# cond: column: Zorbax Extend-C18 2.1 x 50 mm; eluents: water / acetonitrile, 0.1% formic acid
measurementLabel: RP-LC retention time (s)

- molecule: "CCOC(=O)c1noc2nc(C)nc(NCC3CCN(Cc4cccc(Cl)c4)CC3)c12"
  value: 696

1. COCCCNC(=O)c1ccc2c(c1)nc(C)n2-c1ccc(Br)cc1
2. COc1cccc(-c2nc(-c3ccc4oc(C)nc4c3)no2)c1OC
Prompt line: Problem: Given the entries 1 and 2 , determine which has the lower reported RP-LC retention time. Answer by quoting the chosen item's label.
Response line: 1
(1: 629 s, 2: 1020 s)

====

# assayText: gradient 5% acetonitrile 3 min, to 50% in 2 min, to 85% in 15 min, held 3 min, 100 µL/min
# cond: column: Zorbax Extend-C18 2.1 x 50 mm; eluents: water / acetonitrile, 0.1% formic acid
measurementLabel: RP-LC retention time (s)

P. CCc1ccccc1S(=O)(=O)NCC(c1cccnc1)c1cn(C)c2ccccc12 (centres undefined)
Q. COc1ccc(-c2nnc(-c3cccnc3NCc3cc(OC)cc(OC)c3)o2)cc1
Prompt line: Param metric = RP-LC retention time; output whichever of P , Q has the minimum value. Please respond with the label that marks your chosen entry.
Response line: P

a. CCNC(=O)C1CC(=O)N(C2CCCCC2)C1 (centres undefined)
b. CCc1nn2c(CNS(=O)(=O)Cc3ccccc3Cl)c(-c3ccccc3)nc2s1
Prompt line: Of a and b , whose reported RP-LC retention time is the larger number? Return value: the label identifying the chosen record.
Response line: b

P. COC(=O)c1c(NCC(C)C)c2cc(F)ccc2[nH]c1=O
Q. CCCn1c(=O)sc2cc(S(=O)(=O)N3CCC(C(=O)Nc4ccc(C)c(F)c4)CC3)ccc21
Prompt line: Please tell me which of the two, P or Q , has the higher reported RP-LC retention time value. Reply briefly: the label of your chosen item.
Response line: Q
(Q: 1060 s, P: 734 s)

====

# assayText: gradient 5% acetonitrile 3 min, to 50% in 2 min, to 85% in 15 min, held 3 min, 100 µL/min
# cond: column: Zorbax Extend-C18 2.1 x 50 mm; eluents: water / acetonitrile, 0.1% formic acid
measurementLabel: RP-LC retention time (s)

- molecule: "Cc1nnc(-c2ccc3ccn(CC(=O)Nc4ccccc4)c3c2)o1"
  unitOfMeasurement: "s"
  RP-LC retention time: 778
- molecule: "Cc1ccc(CN2CCN(CC(=O)N3CCN(c4cccc(Cl)c4)CC3)C(=O)C2=O)cc1"
  unitOfMeasurement: "s"
  RP-LC retention time: 866
- molecule: "CN1C(=O)c2cc(C(=O)NCc3ccc(Cl)cc3)nn2CC1(C)C(=O)NCc1ccc(F)cc1 (centres undefined)"
  unitOfMeasurement: "s"
  RP-LC retention time: 805
- molecule: "Cc1cc(C)c2c(N3CCCCC3)nc(C(=O)NCC3CCCO3)nc2n1 (centres undefined)"
  unitOfMeasurement: "s"
  RP-LC retention time: 621
- molecule: "O=C(CSc1nnc(-c2cccnc2)o1)c1cccc([N+](=O)[O-])c1"
  unitOfMeasurement: "s"
  RP-LC retention time: 724
- molecule: "OC1(c2ccccn2)CCOC2(CCN(Cc3ccccc3OC(F)(F)F)CC2)C1 (centres undefined)"
  unitOfMeasurement: "s"
  RP-LC retention time: 601
- molecule: "COc1cc(C)c(C)cc1S(=O)(=O)N1CCN(c2ccc(-c3cccnc3)nn2)CC1"
  unitOfMeasurement: "s"
  RP-LC retention time: 649
- molecule: "O=C(c1cccs1)N1CCn2c(nnc2-c2ccccc2)C1"
  unitOfMeasurement: "s"
  RP-LC retention time: 656
- molecule: "COc1ccc(N2CC(C(=O)N3CCc4cc(-c5ccno5)ccc43)CC2=O)cc1 (centres undefined)"
  unitOfMeasurement: "s"
  RP-LC retention time: 807

====

# assayText: gradient 5% acetonitrile 3 min, to 50% in 2 min, to 85% in 15 min, held 3 min, 100 µL/min
# cond: column: Zorbax Extend-C18 2.1 x 50 mm; eluents: water / acetonitrile, 0.1% formic acid
measurementLabel: RP-LC retention time (s)

Use these answered entries as a reference point.
- compound: "CCCC(NC(=O)c1ccc(Cl)cc1)C(=O)Nc1nc2ccccc2[nH]1 (centres undefined)"
  unitOfMeasurement: "s"
  RP-LC retention time: 742
- compound: "O=C(NCc1cc(F)cc(F)c1)c1ccc(NC(=O)C2CCC2)cc1N1CCOCC1"
  unitOfMeasurement: "s"
  RP-LC retention time: 871
- compound: "CCn1c(=O)c(N2CCCC(C(=O)N3CCN(c4ccc(Cl)cc4)CC3)C2)nc2ccccc21 (centres undefined)"
  unitOfMeasurement: "s"
  RP-LC retention time: 1230
- compound: "Cc1cc(C)c2c(N3CCCC3)nc(C(=O)N3CCN(c4ccccn4)CC3)nc2n1"
  unitOfMeasurement: "s"
  RP-LC retention time: 1080

A. CCc1nc2cc(-c3noc(Cc4cccc(Cl)c4)n3)ccc2o1
B. CCCCCn1c(=O)c2ccccc2n(Cc2nc(-c3ccc(C)c(C)c3)no2)c1=O
Prompt line: // select label with min value of measured RP-LC retention time from [ A , B ] Returns: label corresponding to the selected item.
Response line: B
(B: 795 s, A: 1170 s)

A. CCN1CCCC1CNC(=O)CCc1nc(-c2ccc(N3CCCC3)cc2)no1 (centres undefined)
B. COc1ccc(Cl)cc1S(=O)(=O)N1CCC(c2noc(-c3ccccc3)n2)CC1
Prompt line: Which value of RP-LC retention time is numerically greater: that of A or that of B ? Answer by quoting the chosen item's label.
Response line: B

a. CN(C)CCn1nnc2cc(-c3noc(Cc4cccc(F)c4)n3)ccc21
b. CCn1c(=O)c(N2CCN(C(=O)Nc3ccc(Br)cc3)CC2)nc2cccnc21
Prompt line: Which gives the smaller RP-LC retention time number: a or b ? Give the label under which the chosen entry appears.
Response line: a

I. O=C(Nc1ccc2c(c1)OCCO2)C1CCCN(c2nnc3c(Cl)cccn23)C1 (centres undefined)
II. CCCOc1ccc(-c2noc(Cc3nc(-c4ccc5c(c4)OCO5)cs3)n2)cc1
Prompt line: // task: argmin of RP-LC retention time over [ I , II ] Which one? Tell me its label.
Response line: I
(I: 709 s, II: 1310 s)

====

# assayText: gradient 5% acetonitrile 3 min, to 50% in 2 min, to 85% in 15 min, held 3 min, 100 µL/min
# cond: column: Zorbax Extend-C18 2.1 x 50 mm; eluents: water / acetonitrile, 0.1% formic acid
measurementLabel: RP-LC retention time (s)

- compound: "CSc1ccc(C2c3[nH]c4ccccc4c3CCN2C(=O)c2cccs2)cc1 (stereo not drawn)"
  RP-LC retention time, s: 1220
- compound: "CCC(C(=O)NCc1ccc(C)o1)n1nc(C)c2nn(-c3ccccc3)c(C)c2c1=O (stereo not drawn)"
  RP-LC retention time, s: 870
- compound: "Cc1cccc(-c2nc3nc(C)cc(N(CCO)CCO)n3n2)c1"
  RP-LC retention time, s: 615

P. O=C(NCCCN1CCOCC1)c1cc(-c2ccccc2)nc2n[nH]c(-c3ccccc3)c12
Q. Cc1ccc(F)cc1S(=O)(=O)N1CCc2c(c(-c3nnc(-c4ccc(F)cc4)o3)nn2C)C1
Prompt line: Please compare: P and Q . Report which one has the smaller RP-LC retention time value. Indicate which entry you chose by stating its label.
Response line: P
(P: 610 s, Q: 1000 s)
